Target: Amine oxidase [flavin-containing] A (Homo sapiens)
Sequence (P21397 whole entry): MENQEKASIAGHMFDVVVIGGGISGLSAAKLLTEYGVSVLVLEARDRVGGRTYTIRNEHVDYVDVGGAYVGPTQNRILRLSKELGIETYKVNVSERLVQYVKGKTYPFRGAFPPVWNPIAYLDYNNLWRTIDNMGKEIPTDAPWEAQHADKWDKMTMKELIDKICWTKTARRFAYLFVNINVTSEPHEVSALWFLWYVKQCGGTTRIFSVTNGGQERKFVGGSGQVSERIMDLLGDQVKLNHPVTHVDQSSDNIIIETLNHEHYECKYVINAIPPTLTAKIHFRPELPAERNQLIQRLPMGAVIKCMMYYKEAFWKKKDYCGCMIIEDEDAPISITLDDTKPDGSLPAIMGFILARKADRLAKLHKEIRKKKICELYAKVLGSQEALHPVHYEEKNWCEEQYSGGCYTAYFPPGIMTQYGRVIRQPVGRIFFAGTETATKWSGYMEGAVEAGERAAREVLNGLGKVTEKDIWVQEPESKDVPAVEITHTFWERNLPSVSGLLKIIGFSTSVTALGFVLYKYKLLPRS
Test: Inhibition of recombinant human MAO-A at 10 uM using kynuramine as substrate after 30 mins by fluorescence method relative to control
Settings: 0.5 h
Provide the reported inhibition at 10 µM of each item.

Structure: CC(=O)c1ccc(OCCCCCN2CCCC2)cc1O
inhibition at 10 µM: < 5%
--
Structure: CC(=O)c1ccc(OCCCN2CCCCC2)cc1O
inhibition at 10 µM: < 5%

State recorded inhibition at 10 µM for all listed compounds.
1. CC(=O)c1ccc(OCCCCCN2CCN(c3ncccn3)CC2)cc1O
2. CC(=O)c1ccc(OCCCN2CCCC2)cc1O
3. CC(=O)c1ccc(OCCCCCN2CCN(c3ccccn3)CC2)cc1O
4. CC(=O)c1ccc(OCCCN2CCN(c3ncccn3)CC2)cc1O
5. CC(=O)c1ccc(OCCCCN2CCN(Cc3ccccc3)CC2)cc1O
6. CC(=O)c1ccc(OCCCN2CCN(Cc3ccccc3)CC2)cc1O

1: < 5%; 2: < 5%; 3: < 5%; 4: < 5%; 5: < 5%; 6: < 5%

====

Target: Amine oxidase [flavin-containing] B (Homo sapiens, UniProt P27338)
For each record, write down the corresponding pIC50.
Numbers only, as −log10 of the molar value.

Example cases with answers are listed next.
Structure: CC(=O)c1ccc(OCCCCCCN2CCN(c3ccccn3)CC2)cc1O
Readout Type: pIC50
Quantitative Result: 4.68

Structure: CC(=O)c1ccc(OCCCCCN2CCN(c3ccccn3)CC2)cc1O
Readout Type: pIC50
Quantitative Result: 4.78

Please state pIC50 for every molecule in the list that follows.
1. CC(=O)c1ccc(OCCCCCN2CCN(c3ncccn3)CC2)cc1O
2. CC(=O)c1ccc(OCCCCN2CCN(Cc3ccccc3)CC2)cc1O
3. CC(=O)c1ccc(OCCCCCN2CCCCC2)cc1O
4. CC(=O)c1ccc(OCCCCCCN2CCN(c3ncccn3)CC2)cc1O

1. 4.81
2. 4.80
3. 5.21
4. 4.46

Could you tell me pIC50 for each of these molecules? They are listed below.
1. CC(=O)c1ccc(OCCCN2CCN(Cc3ccccc3)CC2)cc1O
2. CC(=O)c1ccc(OCCCCN2CCN(c3ncccn3)CC2)cc1O
3. CC(=O)c1ccc(OCCCCN2CCCCC2)cc1O
4. CC(=O)c1ccc(OCCCCCCN2CCCC2)cc1O
5. CC(=O)c1ccc(OCCCN2CCN(c3ccccn3)CC2)cc1O
6. CC(=O)c1ccc(OCCCN2CCCC2)cc1O
7. CC(=O)c1ccc(OCCCN2CCCCC2)cc1O

1: 5.17; 2: 4.82; 3: 5.60; 4: 4.91; 5: 4.93; 6: 6.21; 7: 5.55

// recorded pIC50 for "CC(=O)c1ccc(OCCCCN2CCN(c3ccccn3)CC2)cc1O" : 4.92

====

Target sequence: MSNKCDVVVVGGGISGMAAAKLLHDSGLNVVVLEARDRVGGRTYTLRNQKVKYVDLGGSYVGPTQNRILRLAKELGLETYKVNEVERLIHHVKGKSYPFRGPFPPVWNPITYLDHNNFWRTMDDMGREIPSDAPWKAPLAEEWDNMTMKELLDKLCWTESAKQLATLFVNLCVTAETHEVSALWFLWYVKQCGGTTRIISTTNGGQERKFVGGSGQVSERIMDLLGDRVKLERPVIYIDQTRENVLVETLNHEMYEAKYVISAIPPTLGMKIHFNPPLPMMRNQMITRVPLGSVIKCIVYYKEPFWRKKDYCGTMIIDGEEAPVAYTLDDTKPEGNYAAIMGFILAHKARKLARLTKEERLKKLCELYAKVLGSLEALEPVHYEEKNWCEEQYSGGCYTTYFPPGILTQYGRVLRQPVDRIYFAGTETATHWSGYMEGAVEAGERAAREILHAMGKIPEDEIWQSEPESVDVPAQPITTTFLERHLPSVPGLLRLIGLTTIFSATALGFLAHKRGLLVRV
Readout Type: pIC50
Answers are plain numbers, as −log10 of the molar value.

Some solved entries appear below for comparison.
Structure: CC(=O)c1ccc(OCCCCCN2CCCC2)cc1O
pIC50: 5.46
--
Structure: CC(=O)c1ccc(OCCCCCCN2CCCCC2)cc1O
pIC50: 4.58
--
Structure: CC(=O)c1ccc(OCCCCN2CCCC2)cc1O
pIC50: 5.74
--
Structure: CC(=O)c1ccc(OCCCCCN2CCN(Cc3ccccc3)CC2)cc1O
pIC50: 4.57
--
Structure: CC(=O)c1ccc(OCCCCCCN2CCN(Cc3ccccc3)CC2)cc1O
pIC50: 4.51

--- query ---
Value of pIC50 reported for the compound "CC(=O)c1ccc(OCCCN2CCN(c3ncccn3)CC2)cc1O" is 4.82
